- TEST_SYSTEM: Acyl-CoA (8-3)-desaturase (Homo sapiens, UniProt O60427)
- Sequence (O60427 whole entry): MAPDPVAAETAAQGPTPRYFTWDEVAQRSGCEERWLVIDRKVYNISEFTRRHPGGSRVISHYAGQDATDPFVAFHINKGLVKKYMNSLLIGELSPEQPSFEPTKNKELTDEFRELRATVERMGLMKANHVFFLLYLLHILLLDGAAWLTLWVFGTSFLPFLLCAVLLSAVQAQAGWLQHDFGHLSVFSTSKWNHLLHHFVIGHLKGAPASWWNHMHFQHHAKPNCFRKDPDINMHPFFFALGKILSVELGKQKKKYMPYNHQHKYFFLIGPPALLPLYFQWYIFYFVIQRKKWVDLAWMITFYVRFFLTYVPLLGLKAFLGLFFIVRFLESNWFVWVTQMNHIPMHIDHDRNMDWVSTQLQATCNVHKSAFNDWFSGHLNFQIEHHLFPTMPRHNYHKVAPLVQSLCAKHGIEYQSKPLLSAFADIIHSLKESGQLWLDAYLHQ
- METHOD: Inhibition of delta-5 desaturase expressed in HepG2 cells
pIC50: −log10 of the molar value.
TEST_READOUT: pIC50

# COMPOUND_STRUCTURE, OBSERVED
data = [
    ("O=C(O)Cn1nnc(-c2cc(OCCCOc3cc(F)ccc3Br)no2)n1", "< 4.70"),
]

* * *

- TEST_SYSTEM: Acyl-CoA desaturase 1 (Rattus norvegicus, UniProt P07308)
- Sequence (P07308 whole entry): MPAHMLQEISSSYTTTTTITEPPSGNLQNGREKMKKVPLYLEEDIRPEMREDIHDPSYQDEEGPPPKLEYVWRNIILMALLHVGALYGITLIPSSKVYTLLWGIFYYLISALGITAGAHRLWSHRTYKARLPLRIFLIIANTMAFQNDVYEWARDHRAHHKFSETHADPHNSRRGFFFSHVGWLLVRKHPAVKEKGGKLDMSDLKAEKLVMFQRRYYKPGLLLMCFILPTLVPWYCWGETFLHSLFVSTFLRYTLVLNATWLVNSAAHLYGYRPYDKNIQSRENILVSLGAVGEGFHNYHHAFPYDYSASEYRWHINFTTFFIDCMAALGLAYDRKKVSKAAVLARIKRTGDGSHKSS
- METHOD: Inhibition of rat liver microsome SCD1
pIC50: −log10 of the molar value.
Overview of reported pIC50 across a group of molecules:

# COMPOUND_STRUCTURE, pIC50
records = [
    ("O=C(O)Cn1nnc(-c2nnc(OCCCOc3cc(F)ccc3Br)s2)n1", 7.59),
    ("O=C(O)Cn1nnc(-c2cc(OCCOCc3cc(F)ccc3Br)no2)n1", 6.52),
    ("O=C(O)Cn1nnc(-c2cc(OCCCOc3cc(F)ccc3Br)no2)n1", 7.89),
    ("Cc1nc(OCCCOc2cc(F)ccc2Br)sc1-c1nnn(CC(=O)O)n1", 7.66),
    ("O=C(O)Cn1nnc(-c2cnc(OCCCOc3cc(F)ccc3Br)s2)n1", 8.30),
    ("O=C(O)Cn1nnc(-c2cnc(OCCCOc3cc(OC(F)(F)F)ccc3Br)s2)n1", 8.70),
    ("O=C(O)Cn1nnc(-c2cc(OCCOc3cc(F)ccc3Br)no2)n1", 6.65),
    ("O=C(O)Cn1nnc(-c2cc(OCCCCOc3cc(F)ccc3Br)no2)n1", 6.61),
]
